viability at 48 h, 1000 molar ratio values for the compounds below.
Assay comment: Cytotoxicity against human Raji cells assessed as cell viability at 1000 molar ratio after 48 hrs
Format: cell-based
Condition parameters: read-out: Activity
Reply numerically in %, unit not repeated.

Worked set:
# Compound, Unit, viability at 48 h, 1000 molar ratio
measured = [
    ("C[C@@H]1C(=O)O[C@H](C)[C@H]1CC(=O)[C@](C)(O)[C@H]1CC[C@@]2(O)C3=CC(=O)[C@@H]4C[C@@H](O)[C@@H](O)C[C@]4(C)[C@H]3CC[C@]12C", "%", 60),
    ("CC(=O)OC[C@@]12[C@@H](OC(C)=O)C[C@@H](C)[C@](C)(C[C@H](OC(C)=O)C3=CC(=O)OC3)[C@H]1[C@H](OC(C)=O)CC[C@]21CO1 [AJUGAPANTIN A]", "%", 70),
]

Field viability at 48 h, 1000 molar ratio (entry C/C=C(/C)C(=O)O[C@@H]1CC[C@]2(CO2)[C@]2(COC(C)=O)[C@@H](OC(C)=O)C[C@@H](C)[C@](C)(C[C@H](O)C3=CC(=O)OC3)[C@@H]12 ) reads 50

Entry under test: C/C=C(/C)C(=O)O[C@@H](C[C@@]1(C)[C@H](C)C[C@H](OC(C)=O)[C@]2(COC(C)=O)[C@@H]1[C@H](OC(=O)/C(C)=C\C)CC[C@]21CO1)C1=CC(=O)OC1 . Its viability at 48 h, 1000 molar ratio was 70

For C[C@@H]1C(=O)O[C@H](C)[C@H]1C[C@@H](O)[C@](C)(O)[C@H]1CC[C@@]2(O)C3=CC(=O)[C@@H]4C[C@@H](O)[C@@H](O)C[C@]4(C)[C@H]3CC[C@]12C [CYASTERONE] the compound record lists viability at 48 h, 1000 molar ratio as 70

Note to self: viability at 48 h, 1000 molar ratio recorded for CC(C)(O)CC[C@@H](O)[C@@](C)(O)[C@H]1CC[C@@]2(O)C3=CC(=O)[C@@H]4C[C@@H](O)[C@@H](O)C[C@]4(C)[C@H]3CC[C@]12C was 70

* * *

Assay comment: Cytotoxicity against human Raji cells assessed as cell viability at 1000 molar ratio after 48 hrs
Type: cell-based
Condition parameters: read-out: Activity
Experimental readout: viability at 48 h, 1000 molar ratio (%)
Return type: number; implicit unit %.

Example compounds with recorded viability at 48 h, 1000 molar ratio:
# Compound, Experimental readout, Unit, Numeric readout
measured = [
    ("CCC1=C(C)C(=O)O[C@@H]([C@](C)(O)[C@H]2CC[C@@]3(O)C4=CC(=O)[C@@H]5C[C@@H](O)[C@@H](O)C[C@]5(C)[C@H]4CC[C@]23C)C1", "viability at 48 h, 1000 molar ratio", "%", 60),
    ("C/C=C(/C)C(=O)O[C@@H]1CC[C@]2(CO2)[C@]2(COC(C)=O)[C@@H](OC(C)=O)C[C@@H](C)[C@](C)(C[C@H](OC(C)=O)C3=CC(=O)OC3)[C@@H]12", "viability at 48 h, 1000 molar ratio", "%", 60),
    ("COc1cc(C(=O)O)ccc1O", "viability at 48 h, 1000 molar ratio", "%", 60),
]

The value of viability at 48 h, 1000 molar ratio measured for the compound C[C@@H]1C(=O)O[C@H](C)[C@H]1C[C@@H](O)[C@](C)(O)[C@H]1CC[C@@]2(O)C3=CC(=O)[C@]4(O)C[C@@H](O)[C@@H](O)C[C@]4(C)[C@H]3CC[C@]12C turned out to be 70

viability at 48 h, 1000 molar ratio reported for this compound CC1(C)C[C@H](O)C[C@@]2(C)OC(=O)C=C12 [LOLIOLIDE] : 60

Input C=C(C)C(C[C@@H](O)[C@@](C)(O)[C@H]1CC[C@@]2(O)C3=CC(=O)[C@@H]4C[C@@H](O)[C@@H](O)C[C@]4(C)[C@H]3CC[C@]12C)C(C)O (stereo partly specified) . Output viability at 48 h, 1000 molar ratio: 70
